Tested on: G. duodenalis BRIS/91/HEPU/1279
protocol: Primary Giardia screen at 10 µM (live-cell imaging, automated counting)
Format: cell-based, Giardia duodenalis
test-settings: 48 h, first singlicate assay
Outcome label depends on % Inhibition n=1 48h relative to 9%: at/above gives true, below gives false.

CSCCC1COC(c2cccn2C)=N1 (centres unmarked) [SN00784837] = false

query: Please indicate if the recorded % Inhibition n=1 48h for CC(C)(C)OC(=O)N1CCN(C(=O)C2CCCNC2)CC1 (centres unmarked) [SN00769730] meets or exceeds 9%.
result: true

query: Please indicate if the recorded % Inhibition n=1 48h for CCc1nnc(-c2cc3ccccc3n2CC(=O)N2CCCc3ccccc32)o1 [SN00789262] meets or exceeds 9%.
result: false

query: Please indicate if the recorded % Inhibition n=1 48h for Cc1cc(C2CCCN2Cc2sccc2C)on1 (centres unmarked) [SN00793909] meets or exceeds 9%.
result: false

query: Please indicate if the recorded % Inhibition n=1 48h for COCCN1C(=O)CCC(C(=O)O)C1c1cnn(-c2ccccc2)c1 (centres unmarked) [SN00783261] meets or exceeds 9%.
result: false

query: Please indicate if the recorded % Inhibition n=1 48h for CCOCCCNC(=O)N1Cc2ccccc2-n2cccc2C1c1ccccc1 (centres unmarked) [SN00791279] meets or exceeds 9%.
result: false

query: Please indicate if the recorded % Inhibition n=1 48h for FC(F)Oc1ccc(-c2csc(Cc3nnc4n3CCCCC4)n2)cc1 [SN00776417] meets or exceeds 9%.
result: true

query: Please indicate if the recorded % Inhibition n=1 48h for Cc1cc(C)cc(N2CCN(CCCNC(=O)c3nc(-c4ccncn4)no3)CC2)c1 [SN00802991] meets or exceeds 9%.
result: false

query: Please indicate if the recorded % Inhibition n=1 48h for CCCN(C)C(=O)c1ccc(-c2ccnc(N3CCCCC3)n2)cc1 [SN00799110] meets or exceeds 9%.
result: false

query: Please indicate if the recorded % Inhibition n=1 48h for O=C1CC(C(=O)N2CCCCC2Cn2cccn2)CN1C1CCCC1 (centres unmarked) [SN00782719] meets or exceeds 9%.
result: false

query: Please indicate if the recorded % Inhibition n=1 48h for CCN(Cc1ccccc1)C(=O)c1cc(-c2ccccc2)n[nH]1 [SN00788230] meets or exceeds 9%.
result: true

query: Please indicate if the recorded % Inhibition n=1 48h for Cn1cnc2c1CCN(Cc1csc(-c3ccco3)n1)C2 [SN00781992] meets or exceeds 9%.
result: true

query: Please indicate if the recorded % Inhibition n=1 48h for COc1ccc(-c2nc(CS(=O)(=O)c3ccc(C)cc3)no2)c(C)c1 [SN00798481] meets or exceeds 9%.
result: true

query: Please indicate if the recorded % Inhibition n=1 48h for O=c1c(Br)c(N2CCCCC2)cnn1-c1ccccc1 [SN00775416] meets or exceeds 9%.
result: false

----------
Tested on: G. duodenalis BRIS/91/HEPU/1279
protocol: Primary Giardia screen at 10 µM (live-cell imaging, automated counting)
Assay type: cell-based, Giardia duodenalis
test-settings: 48 h, first singlicate assay
Consider the following molecules; for each one, report its % Inhibition n=1 48h.
Give bare numbers, in %.

Some molecules with recorded % Inhibition n=1 48h:
CC(=O)c1ccc(Nc2ncnc3c2c(C)c(C)n3-c2ccccc2)cc1 = 48.7
O=C(c1ccc(F)cc1)N1CCc2[nH]nc(C(=O)N3CCN(c4ccc(F)cc4)CC3)c2C1 = 0.9
COCC(=O)N1CCC(Oc2ncccc2C(=O)N(C)C)CC1 = 4.8
CCc1ncc2c(n1)CN(Cc1nc(-c3ccco3)oc1C)CC2 = 0.0
Cc1ccc(-c2noc(-c3cccn4c(=O)n(CC(=O)Nc5cc(C)ccc5C)nc34)n2)cc1 = 23.0

Provide % Inhibition n=1 48h values for the following items, in order.
1. Cc1cccc(NC(=O)Cn2c(=O)n(-c3ccc(F)cc3)c(=O)c3c(C)c(C(=O)N(C)C)sc32)c1
2. COCC(=O)Nc1ccc(NC(=O)c2cc3nc(C)ccc3o2)cc1
3. CCN1c2cc(Cl)ccc2C(=O)NC12CCN(C(=O)Nc1ccc3c(c1)OCO3)CC2
4. Cc1nnc(CN2CCN(CC(O)COCc3ccco3)CC2)n1C (centres unmarked)
5. Cc1nc(N2CCCC2)c2c(C)c(C(=O)Nc3ccccc3Cl)sc2n1
6. CCOCCn1c(N2CCCCC2)nc(C)cc1=O

result:
1: 21.9; 2: 14.1; 3: 8.9; 4: 57.1; 5: 49.2; 6: 33.8

Provide % Inhibition n=1 48h values for the following items, in order.
1. Cc1nc(C2CCN(CC(=O)NC(c3ccc(F)cc3)c3cccs3)CC2)n[nH]1 (centres unmarked)
2. CC(=O)c1ccc(NC(=O)C2CC(=O)N=C(N3CCN(Cc4ccc5c(c4)OCO5)CC3)N2)cc1 (centres unmarked)
3. CN1CC(c2nc3ccccc3[nH]2)CC1=O (centres unmarked)
4. COc1ccc(N2C(=O)NC3CC2(C)Oc2ccc(OC)cc23)cc1 (centres unmarked)
5. CC1CCN(C(=O)c2n[nH]c(=O)c3ccccc23)CC1
6. COC(=O)c1cn(CC(=O)NCc2cc3c(cc2C)OCCCO3)c2ccccc12

result:
1: 24.6; 2: 6.8; 3: 0.0; 4: 11.2; 5: 0.0; 6: 14.4

Provide % Inhibition n=1 48h values for the following items, in order.
1. O=C(Nc1ccc(N2CCn3c(nc4cc(Cl)ccc43)C2)cc1)NC1CCCCC1
2. CCn1c(Cn2c(-c3cccnc3)noc2=O)nc2c(F)cccc21

result:
10.0
0.0

Memo: CN1CCN(CC2CCN(C(=O)Cc3cccc4ccccc34)CC2)CC1 , reported % Inhibition n=1 48h: 17.7

Where do these numbers come from? They come from paper PMC9775191.
